- procedure_details: Solubility in PBS pH 7.4 with 1% DMSO
- assay_conditions: phosphate buffered saline with 1% DMSO, pH 7.4, aqueous buffer, kinetic from dmso stock
# Lookup of reported solubility at 24 h keyed by entry
quantity_kind: solubility at 24 h

INSERT INTO assay_data (mol_smiles, quantity_kind, result) VALUES
  ('CCOC(=O)N1C(=O)C2(CCCCC2)N(c2ccc(C#N)cc2)C1=S', 'solubility at 24 h', '< 1 µM'),
  ('O=C1NC(=S)N(c2ccc(F)cc2)C12CCCCC2', 'solubility at 24 h', '43 µM'),
  ('Cc1ccc(N2C(=S)NC(=O)C2(C)C)cc1', 'solubility at 24 h', '55 µM'),
  ('CCOC(=O)N1C(=S)N(c2ccc(C)cc2)C2(CCCCC2)/C1=N/Cc1ccccc1', 'solubility at 24 h', '26 µM'),
  ('CCOC(=O)N1C(=O)C2(CCCCC2)N(c2ccccc2)C1=S', 'solubility at 24 h', '1.6 µM'),
  ('CC(C)N1C(=S)NC(=O)C12CCCCC2', 'solubility at 24 h', '32 µM'),
  ('CCOC(=O)N1C(=O)C2(CCCCC2)N(c2ccc(F)cc2)C1=S', 'solubility at 24 h', '1.1 µM'),
  ('CCOC(=O)N1C(=O)N(c2ccc(C)cc2)C2(CCCCC2)C1=O', 'solubility at 24 h', '55 µM'),
  ('CCOC(=O)N1C(=O)C2(CCCCC2)N(c2ccc(Cl)cc2)C1=S', 'solubility at 24 h', '< 1 µM');

----------
- Tested on: C. glabrata (ATCC 2001)
- procedure_details: Secondary C. glabrata inhibition in glucose media (OD600)
- Type: cell-based, Candida glabrata
- assay_conditions: Nakaseomyces glabratus, ATCC2001; Table 8; n = 3; glucose media, 48 hours; tested up to 3 μM; read-out: Growth Inhibition Activity, IC50 (μM), C. glabrata (n = 3) On glucose
- From the text: Cell Lines. • Candida albicans CaCi-2; a drug-resistant clinical isolate was provided by the Whitehead Institute (Redding et al., Clin. Infect. Dis. 1994, 18(2):240-2). […] Saccharomyces, while not a major human pathogen, is a useful lab model with well-developed genetic tools available. […] By comparing the concentration-dependent inhibition of yeast growth in glycerol relative to glucose media, a quantitative assessment of a compound's ability to disrupt respiration can be determined. […]
# Lookup of reported IC50 keyed by entry
quantity_kind: IC50

INSERT INTO results (mol_smiles, target_under_test, result) VALUES
  ('CCOC(=O)N1C(=O)C2(CCCCC2)N(c2ccc(F)cc2)C1=S', 'C. glabrata (ATCC 2001)', '> 3 µM'),
  ('CCOC(=O)N1C(=O)C2(CCCCC2)N(c2ccc(C#N)cc2)C1=S', 'C. glabrata (ATCC 2001)', '> 3 µM'),
  ('CCOC(=O)N1C(=O)C2(CCCCC2)N(c2cccc(C)c2)C1=S', 'C. glabrata (ATCC 2001)', '> 3 µM');

----------
- procedure_details: Solubility in PBS pH 7.4 with 1% DMSO
- assay_conditions: Table 4; PBS pH 7.4 with 1% DMSO, 24 hours, room temperature
- Method: Solubility was determined in phosphate buffered saline (PBS) pH 7.4 with 1% DMSO. Each compound was prepared in duplicate at 100 μM in both 100% DMSO and PBS with 1% DMSO. Compounds were allowed to equilibrate at room temperature with a 250 rpm orbital shake for 24 hours. After equilibration, samples were analyzed by UPLC-MS (Waters, Milford, Mass.) with compounds detected by SIR detection on a single quadrupole mass spectrometer. […]
# Lookup of reported PBS Solubility keyed by entry
quantity_kind: PBS Solubility (µM)

INSERT INTO results (mol_smiles, unit_descriptor, censoring_sign, measured_number) VALUES
  ('CCOC(=O)N1C(=O)C2(CCCCC2)N(c2ccc(C(C)C)cc2)C1=S', 'µM', '<', 1.0),
  ('CCOC(=O)N1C(=O)C2(CCCCC2)N(c2ccc(C(C)(C)C)cc2)C1=S', 'µM', '<', 1.0),
  ('CCOC(=O)N1C(=O)C2(CCCCC2)N(C(C)C)C1=S', 'µM', '=', 12),
  ('CCOC(=O)N1C(=O)C2(CCCCC2)N(c2ccc(F)cc2)C1=S', 'µM', '=', 1.1);

----------
- Test system: Saccharomyces cerevisiae W303
- procedure_details: Secondary S. cerevisiae inhibition in glycerol media (OD600)
- Assay type: cell-based
- assay_conditions: Saccharomyces cerevisiae, W303, read-out: Growth inhibition of S. cerevisiae on glycerol IC50
pIC50: −log10 of the molar value.
quantity_kind: pIC50

INSERT INTO results (mol_smiles, measured_number) VALUES
  ('CCOC(=O)N1C(=O)C2(CCCCC2)N(c2ccc(F)cc2)C1=S', 8.40);

----------
- procedure_details: Solubility in PBS pH 7.4 with 1% DMSO
- assay_conditions: phosphate buffered saline with 1% DMSO, pH 7.4, aqueous buffer, kinetic from dmso stock
quantity_kind: log10 solubility at 24 h (log10 of the value in µM)

INSERT INTO measurements (mol_smiles, quantity_kind, measured_number) VALUES
  ('O=C1NC(=S)N(c2ccccc2)C12CCCCC2', 'log10 solubility at 24 h', 1.90),
  ('Cc1ccc(N2C(=S)NC(=O)C23CCCC3)cc1', 'log10 solubility at 24 h', 1.86),
  ('Cc1ccc(N2C(=O)C(=O)NC2=S)cc1', 'log10 solubility at 24 h', 1.32),
  ('Cc1ccc(N2C(=O)N(C)C(=O)C23CCCCC3)cc1', 'log10 solubility at 24 h', 2.00),
  ('CCOC(=O)N1C(=O)C2(CCCCC2)N(c2cccc(C)c2)C1=S', 'log10 solubility at 24 h', 0.41),
  ('Cc1ccc(N2C(=O)NC(=O)C23CCCCC3)cc1', 'log10 solubility at 24 h', 1.15),
  ('CCCCN1C(=O)N(c2ccc(C)cc2)C2(CCCCC2)C1=O', 'log10 solubility at 24 h', 1.81),
  ('Cc1ccc(N2C(=S)NC(=O)C23CCC3)cc1', 'log10 solubility at 24 h', 1.79),
  ('Cc1ccc(N2C(=O)C3(CCCCC3)NC2=S)cc1', 'log10 solubility at 24 h', 0.77);

----------
- Tested on: Candida albicans CaCi-17
- procedure_details: Primary assay: C. albicans CaCi-17 growth inhibition (Alamar Blue)
- Assay type: cell-based
- assay_conditions: Table 3; n = 3; 48 hours; tested up to 26 μM; read-out: Growth Inhibition Activity, IC50 (μM), C. albicans (n = 3) CaCi-17
quantity_kind: IC50

INSERT INTO measurements (mol_smiles, quantity_kind, result) VALUES
  ('COC(=O)N1C(=O)C2(CCCCC2)N(c2ccc(C)cc2)C1=S', 'IC50', '17.1 µM');

----------
# Lookup of reported PBS Solubility keyed by entry
- procedure_details: Solubility in PBS pH 7.4 with 1% DMSO
- assay_conditions: Table 4; PBS pH 7.4 with 1% DMSO, 24 hours, room temperature
quantity_kind: PBS Solubility

INSERT INTO assay_data (compound, result) VALUES
  ('CCOC(=O)N1C(=O)C2(CCCCC2)N(c2ccc(CC)cc2)C1=S [compound 56604836]', '<1.0 µM'),
  ('CCOC(=O)N1C(=O)C2(CCCCC2)N(c2ccc(C)cc2)C1=S [compound 3889161]', '<1.0 µM'),
  ('CCOC(=O)N1C(=O)C2(CCCCC2)N(c2ccc(-c3ccccc3)cc2)C1=S [compound 56604882]', '<1.0 µM');

----------
- procedure_details: Solubility in PBS pH 7.4 with 1% DMSO
- assay_conditions: phosphate buffered saline with 1% DMSO, pH 7.4, aqueous buffer, kinetic from dmso stock
# Lookup of reported solubility at 24 h keyed by entry
quantity_kind: solubility at 24 h

INSERT INTO measurements (compound, quantity_kind, result) VALUES
  ('CCCCN1C(=O)N(c2ccc(C)cc2)C2(CCCCC2)C1=S [compound 56604857]', 'solubility at 24 h', '< 1 µM'),
  ('Cc1ccc(N2C(=S)NC(=O)C23CCOCC3)cc1 [compound 56604885]', 'solubility at 24 h', '> 100 µM'),
  ('O=C1NC(=S)N(Cc2ccccc2)C12CCCCC2 [compound 14297244]', 'solubility at 24 h', '> 100 µM'),
  ('O=C1NC(=S)NC12CCCCC2 [compound 56604841]', 'solubility at 24 h', '> 100 µM'),
  ('CCOC(=O)N1C(=S)NC(=O)C12CCCCC2 [compound 56604829]', 'solubility at 24 h', '> 100 µM'),
  ('CCOC(=O)N1C(=S)N(c2ccc(C)cc2)C(=O)C12CCCCC2 [compound 56604852]', 'solubility at 24 h', '< 1 µM'),
  ('CCOC(=O)N1C(=O)C2(CCCCC2)N(c2ccc(C)cc2)C1=S [compound 3889161]', 'solubility at 24 h', '< 1 µM'),
  ('Cc1ccc(N2CC(=O)NC2=S)cc1 [compound 56604844]', 'solubility at 24 h', '< 1 µM'),
  ('Cc1ccc(N2CC(=O)NC2=O)cc1 [compound 759335]', 'solubility at 24 h', '> 100 µM');
